molecular target: LIMK1KD (Homo sapiens, UniProt P53667); construct: His6 (N, cleaved yes); made in house; host or cells: baculovirus; Sf9 for virus, TriEx insect cells for expression; assay: Differential (dynamic) scanning fluorimetry (DSF) assay, LIMK1KD; format: binding; settings: 2 µM LIMK1KD, compound 10 µM, single shot
Sequence (P53667 330-637): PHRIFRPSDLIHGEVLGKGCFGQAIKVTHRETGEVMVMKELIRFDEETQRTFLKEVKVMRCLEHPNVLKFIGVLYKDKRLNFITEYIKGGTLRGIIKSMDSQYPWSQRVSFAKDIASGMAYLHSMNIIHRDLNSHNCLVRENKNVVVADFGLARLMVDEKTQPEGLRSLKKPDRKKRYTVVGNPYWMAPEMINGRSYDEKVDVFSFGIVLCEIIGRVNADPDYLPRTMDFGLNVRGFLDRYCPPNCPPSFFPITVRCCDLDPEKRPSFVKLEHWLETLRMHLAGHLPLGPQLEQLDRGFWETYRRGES
Structures can show the parent of a compound that is named as a salt.
We use 1 K as the dividing line for TM Shift LIMK1 (K): on or above the line is 1 (yes), below is 0 (no).

q: Is TM Shift LIMK1 (K) at least 1 K? Consider "COc1cccc(-c2cc(=O)c3ccccc3o2)c1N"
a: 0 (no)

q: Could you please find out whether CS(=O)(=O)N1CCN(Cc2cc3nc(-c4cccc5[nH]ncc45)nc(N4CCOCC4)c3s2)CC1 [Pictilisib] has TM Shift LIMK1 (K) that meets 1 K or exceeds it?
a: 1 (yes)

q: Answer whether TM Shift LIMK1 (K) of "O=C1NC(=O)/C(=C/c2cccc(C(F)(F)F)c2)S1" is greater than or equal to 1 K.
a: 0 (no)

q: Record "Cc1nc(Nc2n[nH]c3c2CN(C(=O)N[C@H](CN(C)C)c2ccccc2)C3(C)C)c2sccc2n1" ; criterion: TM Shift LIMK1 (K) no lower than 1 K. Met?
a: 0 (no)

q: For this compound, is measured TM Shift LIMK1 (K) 1 K or higher? "CC(C)(C#N)c1ccc(N2C(=O)OCc3cnc4ccc(-c5cnc6ccccc6c5)cc4c32)cc1"
a: 0 (no)

q: Entry CCN(CC)CCCC(C)Nc1nc(C)cc(Nc2ccc3nc(C)cc(N)c3c2)n1 (centres unmarked) : is its TM Shift LIMK1 (K) no less than 1 K?
a: 0 (no)

q: State whether the measured TM Shift LIMK1 (K) reaches 1 K, counting equality as reaching it, for Cl.Cl.O=S(=O)(NCCNC/C=C/c1ccc(Br)cc1)c1cccc2cnccc12 [H 89 2HCl]
a: 1 (yes)

q: Tell me whether TM Shift LIMK1 (K) is at least 1 K here: "Nc1nc(N)c2nc(-c3cccc(O)c3)c(-c3cccc(O)c3)nc2n1"
a: 1 (yes)

q: Please tell me: is the compound CNC(=O)c1c(F)cccc1Nc1nc(Nc2cc3c(cc2OC)CCN3C(=O)CN(C)C)nc2[nH]ccc12 [GSK1838705A] at or over 1 K in terms of TM Shift LIMK1 (K)?
a: 0 (no)

q: Determine whether this compound has TM Shift LIMK1 (K) no lower than 1 K: "Cc1ccc(-c2nn(C(C)(C)C)c3ncnc(N)c23)cc1"
a: 1 (yes)

q: Does "CC(C)(C)n1nc(-c2ccc(Cl)cc2)c2c(N)ncnc21" have a reported TM Shift LIMK1 (K) of at least 1 K?
a: 1 (yes)

q: Decide: is the reported value of TM Shift LIMK1 (K) for "COc1cc2ncnc(Nc3ccc(Cl)cc3F)c2cc1OC" equal to or greater than 1 K?
a: 0 (no)

q: Tell me whether TM Shift LIMK1 (K) is at least 1 K here: "Nc1nccc(-c2c(-c3ccc(F)cc3)ncn2C2CCCCC2)n1"
a: 1 (yes)

q: Hello, I need to know if Cc1ccc(NC(=O)c2ccc(CN3CCN(C)CC3)cc2)cc1Nc1nccc(-c2cccnc2)n1 [Imatinib Mesylate (STI571), Imatinib Mesylate] has measured TM Shift LIMK1 (K) not below 1 K. Thanks!
a: 0 (no)

q: Kindly determine if TM Shift LIMK1 (K) recorded for CCN(CC)CCNC(=O)c1c(C)[nH]c(/C=C2\C(=O)Nc3ccc(F)cc32)c1C [Sunitinib Malate] is above or exactly 1 K.
a: 1 (yes)

q: # check: TM Shift LIMK1 (K) of CS(=O)(=O)N1CCN(Cc2cc3nc(-c4cccc5[nH]ncc45)nc(N4CCOCC4)c3s2)CC1 [GDC-0941] is greater than or equal to 1 K
a: 0 (no)
